The measured values listed here are drawn from patent EP3722296B1.

Some compounds, each annotated with its measured IC50.
targetUnderTest: c-KIT T670I kinase (Homo sapiens, UniProt P10721, T670I)
Construct: The construct contains residues T544-V976 of cKit; GST (N); TEV cleavage site (internal)
Sequence (P10721 544-976 T670I): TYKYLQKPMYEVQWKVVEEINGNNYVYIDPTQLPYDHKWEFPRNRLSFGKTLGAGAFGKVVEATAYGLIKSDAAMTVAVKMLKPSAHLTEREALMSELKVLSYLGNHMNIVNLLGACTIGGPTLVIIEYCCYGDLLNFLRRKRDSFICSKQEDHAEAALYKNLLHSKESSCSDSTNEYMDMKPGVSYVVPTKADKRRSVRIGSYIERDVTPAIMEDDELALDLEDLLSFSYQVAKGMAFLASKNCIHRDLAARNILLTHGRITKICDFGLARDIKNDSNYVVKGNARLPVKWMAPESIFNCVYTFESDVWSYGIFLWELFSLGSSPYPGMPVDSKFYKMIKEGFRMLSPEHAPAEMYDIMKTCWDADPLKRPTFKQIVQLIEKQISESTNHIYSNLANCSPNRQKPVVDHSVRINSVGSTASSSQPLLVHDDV
assayMethodText: c-KIT T670I kinase assay
appliedConditions: enzymatic assay
experimentalEndpoint: IC50

> print(dat)
                                     smiles  observedmeasurement
1  CCn1c(=O)c(-c2cc(NC(=O)Nc3cccc(F)c3)c(F)cc2C)cc2cnc(NC3CC3)cc21         10 to 100 nM
2  CNc1cc2c(cn1)cc(-c1cc(NC(=O)Nc3cccc(C#N)c3)c(F)cc1Cl)c(=O)n2C         10 to 100 nM
3  CCn1c(=O)c(-c2cc(NC(=O)Nc3ccccc3)c(F)cc2Cl)cc2cnc(NC(=O)OC)cc21         10 to 100 nM
4  CCn1c(=O)c(-c2cc(NC(=O)Nc3cccc(C#N)c3)c(F)cc2Cl)cc2cnc(NC)cc21         10 to 100 nM
5  CNc1cc2c(cn1)cc(-c1cc(NC(=O)Nc3cccc(F)c3)c(F)cc1Cl)c(=O)n2C(C)C       100 to 1000 nM
6  CCn1c(=O)c(-c2cc(NC(=O)Nc3cccc(CN4CCN(C)CC4)c3)c(F)cc2Br)cc2cnc(NC)cc21       100 to 1000 nM
7  CCn1c(=O)c(-c2cc(NC(=O)Nc3ccccc3)c(F)cc2Br)cc2cnc(N)cc21              < 10 nM
